- Tested on: Human immunodeficiency virus 1
- Assay Comment: Antiviral activity against NNRTI-resistant HIV-1 RES056 harboring RT K103N/Y181C mutant infected in human MT4 cells assessed as protection against virus-induced cytopathogenicity after 5 days by MTT assay
- Format: functional, organism-based
- Run Conditions: Human immunodeficiency virus 1, RES056, MT4, 120 h
Reported EC50 values follow for various compounds

[
  {
    "Query Smiles": "Cc1cc(/C=C/C#N)cc(C)c1Oc1nc(NC2CCN(Cc3ccc(S(N)(=O)=O)cc3)CC2)ncc1-c1ccc(N)nc1",
    "Target Of Assay": "Human immunodeficiency virus 1",
    "Result": "33.5 nM"
  },
  {
    "Query Smiles": "Cc1cc(-c2cnc(NC3CCN(Cc4ccc(S(C)(=O)=O)cc4)CC3)nc2Oc2c(C)cc(/C=C/C#N)cc2C)ccn1",
    "Target Of Assay": "Human immunodeficiency virus 1",
    "Result": "31.5 nM"
  },
  {
    "Query Smiles": "Cc1cc(-c2cnc(NC3CCN(Cc4ccc(C(N)=O)cc4)CC3)nc2Oc2c(C)cc(/C=C/C#N)cc2C)ccn1",
    "Target Of Assay": "Human immunodeficiency virus 1",
    "Result": "18.1 nM"
  },
  {
    "Query Smiles": "Cc1cc(/C=C/C#N)cc(C)c1Oc1nc(NC2CCN(Cc3ccc(C(N)=O)cc3)CC2)ncc1-c1ccncc1",
    "Target Of Assay": "Human immunodeficiency virus 1",
    "Result": "23.3 nM"
  },
  {
    "Query Smiles": "Cc1cc(C#N)cc(C)c1Oc1nc(NC2CCN(Cc3ccc(S(C)(=O)=O)cc3)CC2)ncc1-c1ccncc1",
    "Target Of Assay": "Human immunodeficiency virus 1",
    "Result": "244 nM"
  },
  {
    "Query Smiles": "Cc1cc(C#N)cc(C)c1Oc1nc(NC2CCN(Cc3ccc(C(N)=O)cc3)CC2)ncc1-c1ccoc1",
    "Target Of Assay": "Human immunodeficiency virus 1",
    "Result": "108 nM"
  },
  {
    "Query Smiles": "Cc1cc(/C=C/C#N)cc(C)c1Oc1nc(NC2CCN(Cc3ccc(S(C)(=O)=O)cc3)CC2)ncc1-c1ccnc(Cl)c1",
    "Target Of Assay": "Human immunodeficiency virus 1",
    "Result": "33.3 nM"
  },
  {
    "Query Smiles": "Cc1cc(/C=C/C#N)cc(C)c1Oc1nc(NC2CCN(Cc3ccc(S(C)(=O)=O)cc3)CC2)ncc1-c1ccnc(Br)c1",
    "Target Of Assay": "Human immunodeficiency virus 1",
    "Result": "33.2 nM"
  }
]

Task: Tell us which EC50 value is on record for "Cc1cc(C#N)cc(C)c1Oc1nc(NC2CCN(Cc3ccc(S(C)(=O)=O)cc3)CC2)ncc1-c1ccoc1"
Output: 172 nM

---

Each entry below carries its reported pEC50.
- Tested on: Human immunodeficiency virus 1
- Assay Comment: Antiviral activity against HIV-1 harboring RT Y188L mutant infected in human MT4 cells assessed as protection against virus-induced cytopathogenicity after 5 days by MTT assay
- Assay type: functional, organism-based
- Run Conditions: Human immunodeficiency virus 1, MT4, 120 h
Please treat pEC50 as minus the base-10 logarithm of the molar concentration.

Completed entries (count: 4):
[
  {
    "Query Smiles": "Cc1cc(C#N)cc(C)c1Oc1nc(NC2CCN(Cc3ccc(S(N)(=O)=O)cc3)CC2)ncc1-c1ccco1",
    "Target Of Assay": "Human immunodeficiency virus 1",
    "pEC50": 7.44
  },
  {
    "Query Smiles": "Cc1cc(C#N)cc(C)c1Oc1nc(NC2CCN(Cc3ccc(C(N)=O)cc3)CC2)ncc1-c1ccccc1",
    "Target Of Assay": "Human immunodeficiency virus 1",
    "pEC50": 7.52
  },
  {
    "Query Smiles": "Cc1cc(C#N)cc(C)c1Oc1nc(NC2CCN(Cc3ccc(C(N)=O)cc3)CC2)ncc1-c1ccco1",
    "Target Of Assay": "Human immunodeficiency virus 1",
    "pEC50": 7.63
  },
  {
    "Query Smiles": "Cc1cc(/C=C/C#N)cc(C)c1Oc1nc(NC2CCN(Cc3ccc(C(N)=O)cc3)CC2)ncc1-c1ccc(F)nc1",
    "Target Of Assay": "Human immunodeficiency virus 1",
    "pEC50": 7.52
  }
]

Task: Answer with the recorded pEC50 of "Cc1cc(/C=C/C#N)cc(C)c1Oc1nc(NC2CCN(Cc3ccc(C(N)=O)cc3)CC2)ncc1-c1cccnc1" only.
Output: 7.59

Task: Respond only with pEC50 recorded for "Cc1cc(C#N)cc(C)c1Oc1nc(NC2CCN(Cc3ccc(C(N)=O)cc3)CC2)ncc1-c1cccs1"
Output: 7.75

Task: State its pEC50: "Cc1cc(C#N)cc(C)c1Oc1nc(NC2CCN(Cc3ccc(S(N)(=O)=O)cc3)CC2)ncc1-c1ccccc1"
Output: 7.48

Task: Retrieve pEC50 measured for "Cc1cc(/C=C/C#N)cc(C)c1Oc1nc(NC2CCN(Cc3ccc(C(N)=O)cc3)CC2)ncc1-c1ccncc1" and print it.
Output: 7.64
